B1: glmS ribozyme (parent)
chain: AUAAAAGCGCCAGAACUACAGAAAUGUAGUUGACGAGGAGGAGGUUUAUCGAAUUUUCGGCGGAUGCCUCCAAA

variants of: B1; experiment: self-cleavage kobs at 2500 uM GlcN6P; higher = faster cleavage; RNA array; details: with glucosamine-6-phosphate
Variants at the floor of the assay were thinned out.
assay_readout: self-cleavage kobs at 2500 uM GlcN6P (s⁻¹)
Response body: numeric value in s⁻¹, unit text excluded.

In the examples that follow, each entry is paired with its recorded self-cleavage kobs at 2500 uM GlcN6P.
sequence_change | units_of_measure | self-cleavage kobs at 2500 uM GlcN6P
A14G G37C | s⁻¹ | 4.49e-05
C16A U55G | s⁻¹ | 0.00101
C10G A39G G66A C67U C71G | s⁻¹ | 7e-05
A14G A39U C71G | s⁻¹ | 0.00129
G40A U57A C71U | s⁻¹ | 0.000149

Reported self-cleavage kobs at 2500 uM GlcN6P, variant A14C G41A C70U : ____ 0.00489

Reported self-cleavage kobs at 2500 uM GlcN6P, variant A12C U54A : ____ 0.00841

Reported self-cleavage kobs at 2500 uM GlcN6P, variant C16U C70A : ____ 0.000204

Reported self-cleavage kobs at 2500 uM GlcN6P, variant A36C C68G : ____ 4.55e-05

Reported self-cleavage kobs at 2500 uM GlcN6P, variant A12C G44U : ____ 8.38e-05

Reference for the values: the supplement of paper PMC7125110
